Measured values drawn from ChEMBL document CHEMBL1921759 for this set.

Tested on: Giardia intestinalis
assay name: Antiprotozoan activity against Giardia intestinalis
Format: functional, organism-based
condition details: Giardia duodenalis
pIC50: −log10 of the molar value.
measurement label: pIC50

[
  {
    "chemical string": "CN(C)CCSc1nc2c(Cl)cc(Cl)cc2[nH]1",
    "measurement label": "pIC50",
    "result value": 7.70
  }
]

###

Tested on: Entamoeba histolytica
assay name: Antiprotozoan activity against Entamoeba histolytica HM1-IMSS trophozoites compound treated for 48 hrs measured after 48 hrs washout period
Type: functional, organism-based
pIC50: −log10 of the molar value.
measurement label: pIC50

[
  {
    "compound": "COc1ccnc(C[S+]([O-])c2nc3cc(OC(F)F)ccc3[nH]2)c1OC (centres undefined) [PANTOPRAZOLE]",
    "result value": 8.59
  },
  {
    "compound": "Cc1c(OCC(F)(F)F)ccnc1C[S+]([O-])c1nc2ccccc2[nH]1 (centres undefined) [LANSOPRAZOLE]",
    "result value": 6.46
  },
  {
    "compound": "COCCCOc1ccnc(C[S+]([O-])c2nc3ccccc3[nH]2)c1C (centres undefined) [RABEPRAZOLE]",
    "result value": 7.63
  },
  {
    "compound": "COc1ccc2[nH]c([S+]([O-])Cc3ncc(C)c(OC)c3C)nc2c1 (centres undefined) [OMEPRAZOLE]",
    "result value": 6.31
  }
]
